tested on: 171881-019-R-J1-PDC complex spheroid growth, % test/control; test: Anticancer human tumor 171881-019-R-J1-PDC patient-derived invasive breast carcinoma cell line growth inhibition [Asc]; settings: second compound 1 µM; first compound 0.0949 µM; hits give low values
viability, T/C: recorded values
Note: unit % is implicit; provide only the numeric part.

| Compound | Result unit | viability, T/C |
| --- | --- | --- |
| Cc1nc(N2CCC3(CC2)COC(C)C3N)c(CO)nc1Sc1ccnc(N)c1Cl (stereo unspecified) + Cc1c(S(C)(=O)=O)c(-c2cc(F)cc(N3CCN(c4ccc(NS(=O)(=O)c5ccc(NC(CCN6CCC(C(=O)OCCCP(=O)(O)O)CC6)CSc6ccccc6)c(S(=O)(=O)C(F)(F)F)c5)cc4)CC3)c2)c(-c2ccc(Cl)cc2)n1C(C)C | % | 144 |
| CCN1C(C(=O)NC23CCC(C(=O)O)(CC2)CC3)C(c2cccc(Cl)c2F)C2(C(=O)Nc3cc(Cl)ccc32)C12CCCCC2 (stereo unspecified) + CNC(C)C(=O)NC1CN(S(=O)(=O)c2cccc(S(=O)(=O)N3CCC4CCC(C(=O)NC(c5ccccc5)c5ccccc5)N4C(=O)C(NC(=O)C(C)NC)C3)c2)CCC2CCC(C(=O)NC(c3ccccc3)c3ccccc3)N2C1=O | % | 112 |
| NC(=O)C(=Cn1cnc(-c2cc(C(F)(F)F)cc(C(F)(F)F)c2)n1)c1cncnc1 + CNC(C)C(=O)NC1CN(S(=O)(=O)c2cccc(S(=O)(=O)N3CCC4CCC(C(=O)NC(c5ccccc5)c5ccccc5)N4C(=O)C(NC(=O)C(C)NC)C3)c2)CCC2CCC(C(=O)NC(c3ccccc3)c3ccccc3)N2C1=O | % | 15.6 |
| CCN1C(C(=O)NC23CCC(C(=O)O)(CC2)CC3)C(c2cccc(Cl)c2F)C2(C(=O)Nc3cc(Cl)ccc32)C12CCCCC2 (stereo unspecified) + Cc1c(S(C)(=O)=O)c(-c2cc(F)cc(N3CCN(c4ccc(NS(=O)(=O)c5ccc(NC(CCN6CCC(C(=O)OCCCP(=O)(O)O)CC6)CSc6ccccc6)c(S(=O)(=O)C(F)(F)F)c5)cc4)CC3)c2)c(-c2ccc(Cl)cc2)n1C(C)C | % | 129 |
| Cc1nc(N2CCC3(CC2)COC(C)C3N)c(CO)nc1Sc1ccnc(N)c1Cl (stereo unspecified) + CNC(C)C(=O)NC1CN(S(=O)(=O)c2cccc(S(=O)(=O)N3CCC4CCC(C(=O)NC(c5ccccc5)c5ccccc5)N4C(=O)C(NC(=O)C(C)NC)C3)c2)CCC2CCC(C(=O)NC(c3ccccc3)c3ccccc3)N2C1=O | % | 183 |

Please examine the following record next.
Please provide the recorded viability, T/C for NC(=O)C(=Cn1cnc(-c2cc(C(F)(F)F)cc(C(F)(F)F)c2)n1)c1cncnc1 + Cc1c(S(C)(=O)=O)c(-c2cc(F)cc(N3CCN(c4ccc(NS(=O)(=O)c5ccc(NC(CCN6CCC(C(=O)OCCCP(=O)(O)O)CC6)CSc6ccccc6)c(S(=O)(=O)C(F)(F)F)c5)cc4)CC3)c2)c(-c2ccc(Cl)cc2)n1C(C)C , tested on 171881-019-R-J1-PDC complex spheroid growth, % test/control.
2.27

* * *

test system: 171881-019-R-J1-PDC complex spheroid growth, % test/control; experiment: Anticancer human tumor 171881-019-R-J1-PDC cell line growth inhibition [Asc]; settings: second compound 0.949 µM; first compound 3.16 µM; hits give low values;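 note: spheroids exposed to compounds for 7 days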
# Lookup of reported viability, T/C keyed by entry

Known results for molecules:
| Molecule | Data value |
| --- | --- |
| O=C(c1cc(Cc2n[nH]c(=O)c3ccccc23)ccc1F)N1CCN(C(=O)C2CC2)CC1 + CCN1C(C(=O)NC23CCC(C(=O)O)(CC2)CC3)C(c2cccc(Cl)c2F)C2(C(=O)Nc3cc(Cl)ccc32)C12CCCCC2 | 103% |
| C#Cc1c(F)ccc2cc(O)cc(-c3ncc4c(N5CC6CCC(C5)N6)nc(OCC56CCCN5CC(F)C6)nc4c3F)c12 (centres undefined) + CCN1C(C(=O)NC23CCC(C(=O)O)(CC2)CC3)C(c2cccc(Cl)c2F)C2(C(=O)Nc3cc(Cl)ccc32)C12CCCCC2 | 210% |
| C=C(F)C(=O)N1CCN(c2nc(OCC3CCCN3C)nc3c2CCN(c2cccc4cccc(Cl)c24)C3)CC1CC#N (centres undefined) + CCN1C(C(=O)NC23CCC(C(=O)O)(CC2)CC3)C(c2cccc(Cl)c2F)C2(C(=O)Nc3cc(Cl)ccc32)C12CCCCC2 | 104% |

We next turn to a different molecule, shown below.
Request the reported viability, T/C associated with C=CC(=O)N1CCN(c2nc(=O)n(-c3c(C)ccnc3C(C)C)c3nc(-c4c(O)cccc4F)c(F)cc23)C(C)C1 (centres undefined) + CCN1C(C(=O)NC23CCC(C(=O)O)(CC2)CC3)C(c2cccc(Cl)c2F)C2(C(=O)Nc3cc(Cl)ccc32)C12CCCCC2
106%

* * *

tested on: 171881-019-R-J1-PDC complex spheroid growth, % test/control; experiment: Anticancer human tumor 171881-019-R-J1-PDC cell line growth inhibition [Asc]; conditions: second compound 0.01 µM; first compound 0.1 µM; hits give low values;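 note: spheroids exposed to compounds for 7 days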
Decision: viability, T/C beneath 90% gives T; viability, T/C meeting or exceeding 90% gives F.

Before answering, review these 7 worked examples.
| Compound | Group label |
| --- | --- |
| NC1CCC(NC2CC2c2ccccc2)CC1 (centres undefined) + CNC(C)C(=O)NC1CN(S(=O)(=O)c2cccc(S(=O)(=O)N3CCC4CCC(C(=O)NC(c5ccccc5)c5ccccc5)N4C(=O)C(NC(=O)C(C)NC)C3)c2)CCC2CCC(C(=O)NC(c3ccccc3)c3ccccc3)N2C1=O | T |
| COc1c(OCCCN2CCOCC2)ccc2c3n(c(=NC(=O)c4cnc(N)nc4)nc12)CCN3 + CNC(C)C(=O)NC1CN(S(=O)(=O)c2cccc(S(=O)(=O)N3CCC4CCC(C(=O)NC(c5ccccc5)c5ccccc5)N4C(=O)C(NC(=O)C(C)NC)C3)c2)CCC2CCC(C(=O)NC(c3ccccc3)c3ccccc3)N2C1=O | T |
| O=C(c1cc(Cc2n[nH]c(=O)c3ccccc23)ccc1F)N1CCN(C(=O)C2CC2)CC1 + CNC(C)C(=O)NC1CN(S(=O)(=O)c2cccc(S(=O)(=O)N3CCC4CCC(C(=O)NC(c5ccccc5)c5ccccc5)N4C(=O)C(NC(=O)C(C)NC)C3)c2)CCC2CCC(C(=O)NC(c3ccccc3)c3ccccc3)N2C1=O | F |
| CCN1CCN(Cc2ccc(Nc3ncc(F)c(-c4cc(F)c5nc(C)n(C(C)C)c5c4)n3)nc2)CC1 + CNC(C)C(=O)NC1CN(S(=O)(=O)c2cccc(S(=O)(=O)N3CCC4CCC(C(=O)NC(c5ccccc5)c5ccccc5)N4C(=O)C(NC(=O)C(C)NC)C3)c2)CCC2CCC(C(=O)NC(c3ccccc3)c3ccccc3)N2C1=O | F |
| Cn1ncnc1[C@H]1c2n[nH]c(=O)c3cc(F)cc(c23)N[C@@H]1c1ccc(F)cc1 + CNC(C)C(=O)NC1CN(S(=O)(=O)c2cccc(S(=O)(=O)N3CCC4CCC(C(=O)NC(c5ccccc5)c5ccccc5)N4C(=O)C(NC(=O)C(C)NC)C3)c2)CCC2CCC(C(=O)NC(c3ccccc3)c3ccccc3)N2C1=O | F |
| C=CC(=O)N1CCN(c2nc(=O)n(-c3c(C)ccnc3C(C)C)c3nc(-c4c(O)cccc4F)c(F)cc23)C(C)C1 (centres undefined) + CNC(C)C(=O)NC1CN(S(=O)(=O)c2cccc(S(=O)(=O)N3CCC4CCC(C(=O)NC(c5ccccc5)c5ccccc5)N4C(=O)C(NC(=O)C(C)NC)C3)c2)CCC2CCC(C(=O)NC(c3ccccc3)c3ccccc3)N2C1=O | F |
| O=C(c1ccc(F)c(F)c1Nc1ccc(I)cc1F)N1CC(O)([C@@H]2CCCCN2)C1 + CNC(C)C(=O)NC1CN(S(=O)(=O)c2cccc(S(=O)(=O)N3CCC4CCC(C(=O)NC(c5ccccc5)c5ccccc5)N4C(=O)C(NC(=O)C(C)NC)C3)c2)CCC2CCC(C(=O)NC(c3ccccc3)c3ccccc3)N2C1=O | F |

Alright, here's another compound for you.
Regarding C#Cc1c(F)ccc2cc(O)cc(-c3ncc4c(N5CC6CCC(C5)N6)nc(OCC56CCCN5CC(F)C6)nc4c3F)c12 (centres undefined) + CNC(C)C(=O)NC1CN(S(=O)(=O)c2cccc(S(=O)(=O)N3CCC4CCC(C(=O)NC(c5ccccc5)c5ccccc5)N4C(=O)C(NC(=O)C(C)NC)C3)c2)CCC2CCC(C(=O)NC(c3ccccc3)c3ccccc3)N2C1=O , kindly confirm whether its viability, T/C is beneath 90%.
F

* * *

Measured viability, T/C, listed per entry.
system: 171881-019-R-J1-PDC complex spheroid growth, % test/control; assay: Anticancer human tumor 171881-019-R-J1-PDC cell line growth inhibition [Asc]; details: second compound 0.3 µM; first compound 3.16 µM; hits give low values;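 note: spheroids exposed to compounds for 7 days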
// return numeric value only (unit: %, not printed)

Consider the worked cases shown below.
| Compound | Result unit | viability, T/C |
| --- | --- | --- |
| C=C(F)C(=O)N1CCN(c2nc(OCC3CCCN3C)nc3c2CCN(c2cccc4cccc(Cl)c24)C3)CC1CC#N (centres undefined) + CCN1C(C(=O)NC23CCC(C(=O)O)(CC2)CC3)C(c2cccc(Cl)c2F)C2(C(=O)Nc3cc(Cl)ccc32)C12CCCCC2 | % | 141 |
| O=C(c1cc(Cc2n[nH]c(=O)c3ccccc23)ccc1F)N1CCN(C(=O)C2CC2)CC1 + CCN1C(C(=O)NC23CCC(C(=O)O)(CC2)CC3)C(c2cccc(Cl)c2F)C2(C(=O)Nc3cc(Cl)ccc32)C12CCCCC2 | % | 114 |
| C=CC(=O)N1CCN(c2nc(=O)n(-c3c(C)ccnc3C(C)C)c3nc(-c4c(O)cccc4F)c(F)cc23)C(C)C1 (centres undefined) + CCN1C(C(=O)NC23CCC(C(=O)O)(CC2)CC3)C(c2cccc(Cl)c2F)C2(C(=O)Nc3cc(Cl)ccc32)C12CCCCC2 | % | 107 |

Now, please, on to the next compound.
Given C#Cc1c(F)ccc2cc(O)cc(-c3ncc4c(N5CC6CCC(C5)N6)nc(OCC56CCCN5CC(F)C6)nc4c3F)c12 (centres undefined) + CCN1C(C(=O)NC23CCC(C(=O)O)(CC2)CC3)C(c2cccc(Cl)c2F)C2(C(=O)Nc3cc(Cl)ccc32)C12CCCCC2 , state its recorded viability, T/C.
213
